Sequence of the target: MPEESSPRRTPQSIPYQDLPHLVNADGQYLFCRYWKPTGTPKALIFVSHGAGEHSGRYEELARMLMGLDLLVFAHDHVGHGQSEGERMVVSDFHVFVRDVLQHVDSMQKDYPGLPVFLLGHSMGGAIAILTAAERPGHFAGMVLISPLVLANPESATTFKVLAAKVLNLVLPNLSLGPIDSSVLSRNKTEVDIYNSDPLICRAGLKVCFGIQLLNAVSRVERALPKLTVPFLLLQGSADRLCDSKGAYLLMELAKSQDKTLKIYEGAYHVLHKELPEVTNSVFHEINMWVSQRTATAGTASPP
experimental-endpoint: IC50 (nM)

>  <compound-structure-string>
O=C(N1CC2(CC(Cn3cnc(C(F)(F)F)c3)C2)C1)N1CC2(CC(n3cnc(C4CC4)n3)C2)C1

>  <IC50, nM>
4.16

$$$$

(I) O=C(N1CC2(CC(Cc3n[nH]c(C4CC4)n3)C2)C1)N1CC2(CC(n3cnc(C(F)(F)F)n3)C2)C1
(II) O=C(N1CC2(CC(Cc3nc(C(F)(F)F)co3)C2)C1)N1CC2(CC(n3cnc(C4(O)CC4)n3)C2)C1
Which has the higher IC50, I or II ? Which one? Tell me its label.
II
(II: 24.5 nM, I: 9.41 nM)

###

Assay read-out pIC50; system under study: UniProt Q99685.
pIC50: −log10 of the molar value.
experimental-endpoint: pIC50

These solved cases illustrate the format of a correct answer.
>  <compound-structure-string>
O=C(N1CC2(CC(n3cnc(C(F)F)n3)C2)C1)N1CC2(CN(Cc3cc(C(F)(F)F)n[nH]3)C2)C1

>  <measured-result>
6.72

$$$$
>  <compound-structure-string>
Cc1sc(CN2CC3(C2)CN(C(=O)N2CC4(CC(n5cnc(C6CC6)n5)C4)C2)C3)nc1C(F)(F)F

>  <measured-result>
7.93

$$$$
>  <compound-structure-string>
Cn1nc(CN2CC3(C2)CN(C(=O)N2CC4(CC(n5cnc(C(F)(F)F)n5)C4)C2)C3)cc1C(F)(F)F

>  <measured-result>
8.62

$$$$
>  <compound-structure-string>
O=C(N1CC2(CC(n3cnc(C(F)(F)F)n3)C2)C1)N1CC2(CN(Cc3ncc(C(F)(F)F)s3)C2)C1

>  <measured-result>
8.75

$$$$
>  <compound-structure-string>
CC(C)(C)c1csc(CN2CC3(C2)CN(C(=O)N2CC4(CC(n5cnc(C6(O)CC6)n5)C4)C2)C3)n1

>  <measured-result>
8.17

$$$$

(1) O=C(N1CC2(CC(n3cnc(C(F)(F)F)n3)C2)C1)N1CC2(CN(Cc3cnn(C(F)(F)F)c3)C2)C1
(2) O=C(N1CC2(CC(n3cnc(C4CC4)n3)C2)C1)N1CC2(CN(Cc3nc(C(F)(F)F)n[nH]3)C2)C1
Identify the entry with the larger pIC50. Options: 1 and 2 Pick one and reply with its label.
1

###

What follows is a collection of pIC50 values obtained with hMAGL (Homo sapiens).
pIC50: −log10 of the molar value.
experimental-endpoint: pIC50

Take a look at these entries with their results.
>  <compound>
Cn1ncc(CC2CC3(C2)CN(C(=O)N2CC4(CC(n5cnc(C6(O)CC6)n5)C4)C2)C3)c1C(F)(F)F

>  <pIC50>
9.33

$$$$
>  <compound>
Cc1nc(C)c(CN2CC3(C2)CN(C(=O)N2CC4(CC(n5cnc(C6CC6)n5)C4)C2)C3)o1

>  <pIC50>
6.99

$$$$
>  <compound>
O=C(N1CC2(CC(Cc3nsc(C(F)(F)F)n3)C2)C1)N1CC2(CC(n3cnc(C4CC4)n3)C2)C1

>  <pIC50>
10.00

$$$$
>  <compound>
O=C(N1CC2(CC(Cc3ncn(CC(F)(F)F)n3)C2)C1)N1CC2(CC(n3cnc(C(F)(F)F)n3)C2)C1

>  <pIC50>
7.93

$$$$
>  <compound>
Cc1nn(CC(F)(F)F)cc1CN1CC2(C1)CN(C(=O)N1CC3(CC(n4cnc(C(F)(F)F)n4)C3)C1)C2

>  <pIC50>
6.19

$$$$

(a) O=C(N1CC2(CC(n3cnc(C(F)(F)F)n3)C2)C1)N1CC2(CN(Cc3nnnn3CC(F)(F)F)C2)C1
(b) O=C(N1CC2(CC(n3cnc(C4CC4)n3)C2)C1)N1CC2(CN(Cc3cnc(C(F)F)s3)C2)C1
(c) N=S(=O)(c1cnn(CC2CC3(C2)CN(C(=O)N2CC4(CC(n5cnc(C6CC6)n5)C4)C2)C3)c1)C(F)(F)F (centres unmarked)
Task field, ranking: reported pIC50, descending order. The reply should contain the labels ordered as requested.
c, b, a
